Listed next: entries and their corresponding IC50.
# Tested on: KASUMI-1
# test.protocol: Cell proliferation assay (Alamar Blue)
# Type: cell-based
# particulars: Homo sapiens, 144 h; KASUMI-1 (leukemia cells); 6 days
reported.endpoint: IC50 (nM)

| chemical.string | reported.endpoint | observed |
| --- | --- | --- |
| Cc1ccc(F)c(NC(=O)Nc2ccc(-c3cccc4c3c(N)nn4C(=O)CCCCCNC(=O)C[C@H](N)C(=O)O)cc2)c1 | IC50 | 1210 |
| Cc1ccc(F)c(NC(=O)Nc2ccc(-c3cccc4c3c(N)nn4C(=O)CCCCCCCCCCCNC(=O)C[C@H](N)C(=O)N[C@@H](CCC(=O)N[C@@H](CCC(=O)N[C@@H](CCC(=O)N[C@@H](CCC(=O)O)C(=O)O)C(=O)O)C(=O)O)C(=O)O)cc2)c1 | IC50 | 100 |
| Cc1ccc(F)c(NC(=O)Nc2ccc(-c3cccc4c3c(N)nn4C(=O)CCCCCNC(=O)C[C@H](N)C(=O)N[C@@H](CCC(=O)N[C@@H](CCC(=O)N[C@@H](CCC(=O)N[C@@H](CCC(=O)O)C(=O)O)C(=O)O)C(=O)O)C(=O)O)cc2)c1 | IC50 | 3210 |
| Cc1ccc(F)c(NC(=O)Nc2ccc(-c3cccc4c3c(N)nn4C(=O)CCCCCCCCCCCNC(=O)C[C@H](N)C(=O)O)cc2)c1 | IC50 | 50 |
| Cc1ccc(F)c(NC(=O)Nc2ccc(-c3cccc4c3c(N)nn4C(=O)CCCCCNC(=O)C[C@H](N)C(=O)N[C@@H](CCC(=O)O)C(=O)O)cc2)c1 | IC50 | 1710 |

###

# Test system: SNU423
# test.protocol: Cell proliferation assay (Alamar Blue)
# Format: cell-based
# particulars: Homo sapiens, SNU-423, 144 h; SNU423 liver cancer cell line; 6 days
# Description: 1. Instruments and Materials • Thermo 311 CO2 incubator; Haier biosafety cabinet; Molecular Devices microplate reader; Xiangyi brand L530 desktop low speed centrifuge; Olympus IX51 inverted fluorescence microscope, DMEM, RPMI 1640, MEM, DMEM/F12 1:1 medium, Fetal bovine serum, 0.25% trypsin solution, phosphate buffer (Thermo Fisher Shanghai Co., Ltd.); sigma dimethyl sulfoxide (DMSO), resazurin; 54 commercial tumor cell lines (including 26 liver cancer cell lines). […]
Please use y for IC50 under 10 µM and n for everything else, ties included.

| compound | class |
| --- | --- |
| Cc1ccc(F)c(NC(=O)Nc2ccc(-c3cccc4c3c(N)nn4C(=O)CCCCCNC(=O)C[C@H](N)C(=O)N[C@@H](CCC(=O)N[C@@H](CCC(=O)N[C@@H](CCC(=O)N[C@@H](CCC(=O)N[C@@H](CCC(=O)N[C@@H](CCC(=O)N[C@@H](CCC(=O)N[C@@H](CCC(=O)N[C@@H](CCC(=O)O)C(=O)O)C(=O)O)C(=O)O)C(=O)O)C(=O)O)C(=O)O)C(=O)O)C(=O)O)C(=O)O)cc2)c1 [Compound 6] | n |
| Cc1ccc(F)c(NC(=O)Nc2ccc(-c3cccc4c3c(N)nn4C(=O)CCCCCCCCCCCNC(=O)C[C@H](N)C(=O)N[C@@H](CCC(=O)O)C(=O)O)cc2)c1 [Compound 7] | n |
| Cc1ccc(F)c(NC(=O)Nc2ccc(-c3cccc4[nH]nc(N)c34)cc2)c1 [Linifanib, reference compound] | y |
| Cc1ccc(F)c(NC(=O)Nc2ccc(-c3cccc4c3c(N)nn4C(=O)CCCCCCCCCCCNC(=O)C[C@H](N)C(=O)N[C@@H](CCC(=O)N[C@@H](CCC(=O)N[C@@H](CCC(=O)N[C@@H](CCC(=O)O)C(=O)O)C(=O)O)C(=O)O)C(=O)O)cc2)c1 [Compound 8] | n |
| Cc1ccc(F)c(NC(=O)Nc2ccc(-c3cccc4c3c(N)nn4C(=O)CCCCCNC(=O)C[C@H](N)C(=O)N[C@@H](CCC(=O)N[C@@H](CCC(=O)N[C@@H](CCC(=O)N[C@@H](CCC(=O)O)C(=O)O)C(=O)O)C(=O)O)C(=O)O)cc2)c1 [Compound 5] | n |
| Cc1ccc(F)c(NC(=O)Nc2ccc(-c3cccc4c3c(N)nn4C(=O)C[C@H](N)C(=O)O)cc2)c1 [Compound 10] | y |
| Cc1ccc(F)c(NC(=O)Nc2ccc(-c3cccc4c3c(N)nn4C(=O)C[C@H](N)C(=O)N[C@@H](CCC(=O)N[C@@H](CCC(=O)N[C@@H](CCC(=O)N[C@@H](CCC(=O)O)C(=O)O)C(=O)O)C(=O)O)C(=O)O)cc2)c1 [Compound 2] | n |
| Cc1ccc(F)c(NC(=O)Nc2ccc(-c3cccc4c3c(N)nn4C(=O)CCCCCNC(=O)C[C@H](N)C(=O)N[C@@H](CCC(=O)O)C(=O)O)cc2)c1 [Compound 4] | n |
| Cc1ccc(F)c(NC(=O)Nc2ccc(-c3cccc4c3c(N)nn4C(=O)C[C@H](N)C(=O)N[C@@H](CCC(=O)O)C(=O)O)cc2)c1 [Compound 1] | y |
| Cc1ccc(F)c(NC(=O)Nc2ccc(-c3cccc4c3c(N)nn4C(=O)CCCCCCCCCCCNC(=O)C[C@H](N)C(=O)O)cc2)c1 [Compound 12] | n |

###

# Test system: AN3CA
# test.protocol: Cell proliferation assay (Alamar Blue)
# Type: cell-based
# particulars: Homo sapiens, AN3-CA, 144 h; AN3CA (endometrial cells); 6 days
pIC50: −log10 of the molar value.

| chemical.string | pIC50 |
| --- | --- |
| Cc1ccc(F)c(NC(=O)Nc2ccc(-c3cccc4c3c(N)nn4C(=O)C[C@H](N)C(=O)N[C@@H](CCC(=O)N[C@@H](CCC(=O)N[C@@H](CCC(=O)N[C@@H](CCC(=O)O)C(=O)O)C(=O)O)C(=O)O)C(=O)O)cc2)c1 | 6.35 |
| Cc1ccc(F)c(NC(=O)Nc2ccc(-c3cccc4c3c(N)nn4C(=O)C[C@H](N)C(=O)N[C@@H](CCC(=O)N[C@@H](CCC(=O)N[C@@H](CCC(=O)N[C@@H](CCC(=O)N[C@@H](CCC(=O)N[C@@H](CCC(=O)N[C@@H](CCC(=O)N[C@@H](CCC(=O)N[C@@H](CCC(=O)O)C(=O)O)C(=O)O)C(=O)O)C(=O)O)C(=O)O)C(=O)O)C(=O)O)C(=O)O)C(=O)O)cc2)c1 | 6.19 |

###

This listing pairs compounds with measured IC50.
# System: DU145
# test.protocol: Cell proliferation assay (Alamar Blue)
# Format: cell-based
# particulars: Homo sapiens, DU-145, 144 h; DU145 tumor cell line; 6 days
# Description: 1. Instruments and Materials • Thermo 311 CO2 incubator; Haier biosafety cabinet; Molecular Devices microplate reader; Xiangyi brand L530 desktop low speed centrifuge; Olympus IX51 inverted fluorescence microscope, DMEM, RPMI 1640, MEM, DMEM/F12 1:1 medium, Fetal bovine serum, 0.25% trypsin solution, phosphate buffer (Thermo Fisher Shanghai Co., Ltd.); sigma dimethyl sulfoxide (DMSO), resazurin; 54 commercial tumor cell lines (including 26 liver cancer cell lines). […]

| compound | unit.descriptor | value.comparator | IC50 |
| --- | --- | --- | --- |
| Cc1ccc(F)c(NC(=O)Nc2ccc(-c3cccc4c3c(N)nn4C(=O)CCCCCCCCCCCNC(=O)C[C@H](N)C(=O)N[C@@H](CCC(=O)N[C@@H](CCC(=O)N[C@@H](CCC(=O)N[C@@H](CCC(=O)O)C(=O)O)C(=O)O)C(=O)O)C(=O)O)cc2)c1 | µM | = | 20.7 |
| Cc1ccc(F)c(NC(=O)Nc2ccc(-c3cccc4c3c(N)nn4C(=O)CCCCCCCCCCCNC(=O)C[C@H](N)C(=O)N[C@@H](CCC(=O)N[C@@H](CCC(=O)N[C@@H](CCC(=O)N[C@@H](CCC(=O)N[C@@H](CCC(=O)N[C@@H](CCC(=O)N[C@@H](CCC(=O)N[C@@H](CCC(=O)N[C@@H](CCC(=O)O)C(=O)O)C(=O)O)C(=O)O)C(=O)O)C(=O)O)C(=O)O)C(=O)O)C(=O)O)C(=O)O)cc2)c1 | µM | = | 34.5 |
| Cc1ccc(F)c(NC(=O)Nc2ccc(-c3cccc4c3c(N)nn4C(=O)C[C@H](N)C(=O)O)cc2)c1 | µM | = | 1.34 |
| Cc1ccc(F)c(NC(=O)Nc2ccc(-c3cccc4[nH]nc(N)c34)cc2)c1 [Linifanib, reference compound] | µM | = | 5.01 |
| Cc1ccc(F)c(NC(=O)Nc2ccc(-c3cccc4c3c(N)nn4C(=O)C[C@H](N)C(=O)N[C@@H](CCC(=O)O)C(=O)O)cc2)c1 | µM | = | 2.76 |
| Cc1ccc(F)c(NC(=O)Nc2ccc(-c3cccc4c3c(N)nn4C(=O)CCCCCCCCCCCNC(=O)C[C@H](N)C(=O)O)cc2)c1 | µM | > | 30 |
| Cc1ccc(F)c(NC(=O)Nc2ccc(-c3cccc4c3c(N)nn4C(=O)CCCCCNC(=O)C[C@H](N)C(=O)N[C@@H](CCC(=O)N[C@@H](CCC(=O)N[C@@H](CCC(=O)N[C@@H](CCC(=O)O)C(=O)O)C(=O)O)C(=O)O)C(=O)O)cc2)c1 | µM | = | 55.4 |
| Cc1ccc(F)c(NC(=O)Nc2ccc(-c3cccc4c3c(N)nn4C(=O)CCCCCCCCCCCNC(=O)C[C@H](N)C(=O)N[C@@H](CCC(=O)O)C(=O)O)cc2)c1 | µM | = | 17.2 |
| Cc1ccc(F)c(NC(=O)Nc2ccc(-c3cccc4c3c(N)nn4C(=O)CCCCCNC(=O)C[C@H](N)C(=O)O)cc2)c1 | µM | = | 26.4 |
